- Test system: E18 rat cortical neuron-glia co-culture
- runDescription: myelination (MBP fiber length per Olig2+ nucleus), % of 1 µM DAPT response (DMSO = 0) (% of DAPT); higher = more myelination, active = 50 or more
- conditionsUsed: 1 µM; treatment time: 8 days (DIV5-DIV13)
Recorded myelination values for a group of molecules are listed next.
Answer with a number only.

Field: example entries. Status: answers known.
For reference, reported myelination for COc1cc2c(cc1OC)C(=O)C(CC1CCN(Cc3ccccc3)CC1)C2 (stereo not given) [Donepezil] stands at -20.8

Sample Nc1nc2c(ncn2COCCO)c(=O)[nH]1 [Acyclovir] ; myelination observed: -11.9

What the record says about O=C(O[C@@H]1C[C@@H]2C[C@H]3C[C@H](C1)N2CC3=O)c1c[nH]c2ccccc12 [Dolasetron] : myelination is -3.78

Memo: CN1CCc2cc(Cl)c(O)cc2C(c2ccccc2)C1 (stereo not given) , reported myelination: -8.8

The reported value for Cc1c(O)cccc1C(=O)N[C@@H](CSc1ccccc1)[C@H](O)CN1C[C@H]2CCCC[C@H]2C[C@H]1C(=O)NC(C)(C)C [Nelfinavir] in terms of myelination is -42.1

Others:
Notebook: "CNC(=N)NCCC[C@H](N)C(=O)O" , myelination read as -37.1

// myelination value for CCCNC(=O)NS(=O)(=O)c1ccc(Cl)cc1 [Chlorpropamide] : -30.5

Record Cc1ccc(S(=O)(=O)NC(=O)NN2CCCCCC2)cc1 [Tolazamide] , field myelination: -15.6
